Antibody Binding Response (RU) values, listed per item
- Target under test: T1, pre-formed complex of hIL-33 and captured hST2-MMH (human, UniProt O95760 112-270)
- T1 construct: Ligand-receptor complex on the sensor: hST2-MMH captured by anti-myc mAb and saturated with 100 nM hIL-33; also called hIL-33 pre-complexed with hST2-MMH
- T1 sequence (O95760 112-270 limits assumed, chain 1 of 2): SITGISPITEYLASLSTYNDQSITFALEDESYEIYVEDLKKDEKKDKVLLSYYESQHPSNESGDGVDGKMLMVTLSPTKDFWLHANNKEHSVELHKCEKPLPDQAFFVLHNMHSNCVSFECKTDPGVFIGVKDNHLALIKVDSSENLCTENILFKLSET
- T1 sequence (chain, as listed by the source limits assumed, chain 2 of 2): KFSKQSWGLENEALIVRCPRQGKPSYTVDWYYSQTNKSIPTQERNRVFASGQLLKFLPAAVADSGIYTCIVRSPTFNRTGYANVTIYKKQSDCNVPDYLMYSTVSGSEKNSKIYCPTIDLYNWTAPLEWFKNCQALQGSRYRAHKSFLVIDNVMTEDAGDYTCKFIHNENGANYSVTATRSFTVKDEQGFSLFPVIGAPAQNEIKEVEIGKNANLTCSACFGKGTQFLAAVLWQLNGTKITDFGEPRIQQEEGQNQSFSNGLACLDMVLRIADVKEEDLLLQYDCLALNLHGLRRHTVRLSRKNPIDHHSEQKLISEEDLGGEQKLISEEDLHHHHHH
- Procedure summary: SPR 25C, 100 nM mAb over hIL-33/hST2-MMH complex
Write down the numeric answer in RU and omit the unit.

- H4H9633P (antibody, human IgG4, V domains shown, Human IgG4 Fc (H4H)) VH: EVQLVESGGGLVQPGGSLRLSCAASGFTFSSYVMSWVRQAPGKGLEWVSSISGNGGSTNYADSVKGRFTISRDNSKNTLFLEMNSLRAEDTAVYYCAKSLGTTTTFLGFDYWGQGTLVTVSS VL: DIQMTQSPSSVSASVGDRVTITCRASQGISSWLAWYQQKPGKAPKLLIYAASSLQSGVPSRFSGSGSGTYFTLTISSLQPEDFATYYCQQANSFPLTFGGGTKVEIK: -1

Turning now to a further record.
For H4H9672P (antibody, human IgG4, V domains shown, Human IgG4 Fc (H4H)) VH: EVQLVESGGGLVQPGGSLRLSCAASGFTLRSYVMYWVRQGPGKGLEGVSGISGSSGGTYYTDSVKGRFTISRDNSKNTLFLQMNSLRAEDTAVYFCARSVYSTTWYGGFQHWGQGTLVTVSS VL: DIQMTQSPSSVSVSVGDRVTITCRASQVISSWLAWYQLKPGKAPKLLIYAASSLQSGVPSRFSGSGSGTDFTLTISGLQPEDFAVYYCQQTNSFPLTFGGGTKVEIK the binder record lists Antibody Binding Response (RU) as -1
